Test: Mupirocin solubility in buffers and solubilizer solutions
Assay type: physicochemical
Conditions: aqueous buffer, thermodynamic from solid; phosphate buffer pH 6.3, after vigorous stirring and sonication
measured_parameter: solubility at 10 min

Give the value of solubility at 10 min reported for the following: C/C(=C\C(=O)OCCCCCCCCC(=O)O)C[C@@H]1OC[C@H](C[C@@H]2O[C@H]2[C@@H](C)[C@H](C)O)[C@@H](O)[C@H]1O ~28 mM

----------
Test: Mupirocin solubility in buffers and solubilizer solutions
Assay type: physicochemical
Details: calcium acetate solution, aqueous buffer; calcium acetate 200 mM pH 5.5
measured_parameter: solubility

Give the value of solubility reported for the following: C/C(=C\C(=O)OCCCCCCCCC(=O)O)C[C@@H]1OC[C@H](C[C@@H]2O[C@H]2[C@@H](C)[C@H](C)O)[C@@H](O)[C@H]1O [Mupirocin] < 2000 µg/mL

----------
Experiment: Mupirocin solubility in buffers and solubilizer solutions
Format: physicochemical
Conditions: PEG 400, organic solvent or mixture
measured_parameter: solubility

Give the value of solubility reported for the following: C/C(=C\C(=O)OCCCCCCCCC(=O)O)C[C@@H]1OC[C@H](C[C@@H]2O[C@H]2[C@@H](C)[C@H](C)O)[C@@H](O)[C@H]1O [Mupirocin] ~100 mM
